Sourced from the Human Domainome abundance scans (Beltran et al. 2025)

B1: POU domain, class 3, transcription factor 3, residues 320 to 388; numbered along this chain, P20264 (parent)
chain: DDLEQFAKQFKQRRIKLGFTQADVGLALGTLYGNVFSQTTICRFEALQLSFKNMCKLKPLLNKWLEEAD

variants of: B1; assay: abundance fitness (aPCA) (normalised: wild type 0, dead -1); higher = more abundant; growth selection in yeast, the domain comes from the species named; conditions: Homo sapiens
Consider the following variants and their measured abundance fitness readings.

Returns the measured abundance fitness for the input variant. Input: T39M
-0.502

Returns the measured abundance fitness for the input variant. Input: F44K
-0.696

Returns the measured abundance fitness for the input variant. Input: V24P
-0.673
